System: NCI-H226 lung
Test: NCI tumour cell line growth inhibition, 48 h
Measured TGI, listed per entry for reference.
Property label: TGI

1. c1cncc(C2Nc3cccc4cccc(c34)N2)c1; > 100 µM
2. N#Cc1c(N)nc(N)nc1N[C@H](c1nc2c(F)ccc(Cl)c2c(=O)n1-c1cccnc1)C1CC1; > 100 µM
3. COC(=O)[C@@H](Cc1ccccc1)N1O[C@]12CCCC[C@@H]2NC(=O)OC(C)(C)C (stereo partly specified); > 100 µM
4. Cc1c(N/C=C(\C#N)C(=O)c2ccc(Cl)cc2)c(=O)n(-c2ccccc2)n1C; > 100 µM
5. CN1C=Cc2nccc3cc4c(c1c23)OCO4; 43.5 µM
6. Clc1ccc2nc(-c3ccccc3)nc(Cl)c2c1; > 100 µM

====

Test system: OVCAR-8 ovarian
Experiment: NCI tumour cell line growth inhibition, 48 h; in the data active means GI50 below about 0.43 µM; inactive means the rest
Possible outcomes: yes (active), no (inactive)

1. C[n+]1c(-c2ccc(/C=N/NC(=O)c3ccc(C(=O)N/N=C/c4ccc(-c5cn6ccccc6[n+]5C)cc4)cc3)cc2)cn2ccccc21; no
2. CCCCNC(=O)c1cc(NCc2cc(O)ccc2O)ccc1O; no
3. COc1cc(-c2n/c(=C\c3c(O)[nH]c4cc(Cl)ccc34)cc3c2=Nc2ccccc2-3)cc(OC)c1OC; no
4. C/C(=N\NC(=S)N1CC2CCC(CC2)C1)c1cccc(C)n1; yes
5. CC(=O)C1=C(C)N(C)C2(O)C=CC(=O)C3=C(O)c4ccccc4C(=O)C312 (centres undefined); no
6. C[C@]12CC[C@H]3[C@@H](C[C@@H]4SC(Nc5ccccc5)=N[C@@]45CC(O)CC[C@]35C)[C@@H]1CCC2O (some centres undefined); no
7. c1cncc(C2Nc3cccc4cccc(c34)N2)c1; no
8. Cc1ccc(C(SCC(N)C(=O)O)(c2ccccc2)c2ccccc2)cc1 (centres undefined); yes
9. COc1ccc(/C=C2\CN(Cc3cn(CCNc4ccnc5cc(Cl)ccc45)nn3)C/C(=C\c3ccc(OC)c(OC)c3)C2=O)cc1OC; no

====

Tested on: XF 498 CNS
Test: NCI tumour cell line growth inhibition, 48 h
Property label: TGI (µM)

1) COC(=O)C(CBr)CBr; 4.54
2) COc1ccc(/C(Cl)=C(\c2ccc(OCCN(C)C)cc2)c2ccc(OC(=O)C(C)(C)C)cc2)cc1; 23.7
3) COc1ccc2c(c1)CC1c3c(ccc(OC)c3O)CC2N1C (stereo not drawn); 62.3
4) O=S(=O)(c1ccccc1)n1cc(C[P+](c2ccccc2)(c2ccccc2)c2ccccc2)c2ccccc21; 12.1
5) CCOC(=O)c1oc2ccc([N+](=O)[O-])c3c2c1CCC3; 41
6) O=c1c(NO)c([N+](=O)[O-])cnn1-c1ccccc1; 8.38

====

Test system: KM20L2 colon
Experiment: NCI tumour cell line growth inhibition, 48 h
Property label: TGI (µM)

1. O=c1c(NO)c([N+](=O)[O-])cnn1-c1ccccc1; 18.3
2. CC(CNCCCNCCNCCCNCO)[N+](=O)[O-] (stereo not given); 31.7

====

System: SK-MEL-5 melanoma
Test: NCI tumour cell line growth inhibition, 48 h
Measured GI50, listed per entry for reference.
Property label: GI50

1. CCCCNC(=O)c1cc(NCc2cc(O)ccc2O)ccc1O; 15.4 µM
2. Cc1ccc(C2=C(c3ccccc3)C(c3ccccc3)Oc3ccc(C)cc32)cc1 (stereo not given); 1.92 µM
3. Cc1cc(C(=O)O)c(C)n1-c1cccc(C(=O)O)c1; > 100 µM
4. CCCCC(=O)N/N=C/c1c(O)ccc2ccccc12; 1.84 µM
5. COc1cc(-c2n/c(=C\c3c(O)[nH]c4cc(Cl)ccc34)cc3c2=Nc2ccccc2-3)cc(OC)c1OC; 3.98 µM
6. O=C1C(=O)c2ccccc2C(O)=C1CCCc1ccc(C2CCCCCC2)cc1; 0.445 µM
7. O=S1(=O)CS(=O)(=O)OCCO1; > 56.6 µM
8. CCCCNC(=O)Oc1ccc(/C(=C(/C)Cc2ccc(OC)cc2)c2ccc(OCCN3CCCC3)cc2)cc1; 1.66 µM
9. N=C(N)c1ccc(NCCOCCNc2ccc(C(=N)N)cc2)cc1; 25.5 µM
10. CC(=O)[CH-]C(=O)c1ccccc1.CC(=O)[CH-]C(=O)c1ccccc1.Cl.[O-]c1ccccn1.[O-]c1ccccn1.[Ti+4]; > 100 µM
